test: CellTiter-Glo cell viability; type: cell-based; conditions: human, MFE319 cells, p53-01 Concentration (µM) 0.625; No PMV6; read-out: viability, replicates (sheet 4G)
measuredQuantity: viability at 0.625 µM (%)

# compound, resultUnits, reportedMeasurement
rows = [
    ("CC[C@@H]1C(=O)N(C)c2cnc(Nc3ccc(C(=O)NCCOCCOCCOCCOCCC(=O)N4CCC(Nc5cccc6c5cc(C#CCNc5ccc(S(C)(=O)=O)cc5OC)n6CC(F)(F)F)CC4)cc3OC)nc2N1C1CCCC1 [p53-01, PMV6-PEG4-BI2536]", "%", 85.4),
]

###

test: CellTiter-Glo cell viability; format: cell-based; conditions: human, p53_construct Mut; Compound_conc 12.5; CTG 4 days; read-out: mean (normalized viability)

# itemSmiles, viability at 4 days, %
data = [
    ("CC[C@@H]1C(=O)N(C)c2cnc(Nc3ccc(C(=O)NC4CCN(C)CC4)cc3OC)nc2N1C1CCCC1", 70.7),
]
